// data source = PubChem BioAssay (NCATS)

# METHOD SUMMARY: Quantitative High-Throughput drug screen in 47 multiple myeloma cell lines against the NCATS MIPE library collection: Delta47_JCRB cell viability assay (AID 1918925; also: nearly all actives have a fitted effect of over 45% in size)
# MEASUREMENT SETUP: Delta47 myeloma viability, CellTiter-Glo ATP, 48 h; series mostly up to 45.8 µM
Results filed as inconclusive are left out. Calls of active or inactive are those of the source. Calls follow the shape of the dose curve; as a rule, active = well fitted cell-killing curve with a large enough effect; inconclusive = small, poorly fitted or top-dose-only effect, or effect the other way; inactive = no such curve, though single readings can be large or run the other way. Residues, ends and D or L forms follow the SMILES beside them. *: point of attachment. Cbz = O=C(OCc1ccccc1)*
Classes used: YES for active, NO for inactive

- COMPOUND: "NC(=O)Nc1sc(-c2ccc(F)cc2)cc1C(N)=O"
  LABEL CLASS: "YES"
- COMPOUND: "CN(C)CC(=O)N1CCC(c2ccc(NC(=O)c3ncc(C#N)[nH]3)c(C3=CCCCC3)c2)CC1"
  LABEL CLASS: "YES"
- COMPOUND: "CC(=O)OC[C@@H]1O[C@@H](n2ccc(=O)[nH]c2=O)[C@H](OC(C)=O)[C@H]1OC(C)=O"
  LABEL CLASS: "NO"
- COMPOUND: "N#Cc1cc(NC(=O)Nc2nnc(-c3ccncc3)s2)ccc1-c1cn[nH]c1"
  LABEL CLASS: "NO"
- COMPOUND: "CC(C)(O)[C@H]1CC[C@@](C)([C@H]2[C@@H](O)C[C@@]3(C)[C@@H]4C[C@H](O[C@@H]5O[C@H](CO)[C@@H](O)[C@H](O)[C@@H]5O)[C@H]5C(C)(C)[C@@H](O[C@@H]6OC[C@@H](O)[C@H](O)[C@@H]6O)CC[C@@]56C[C@@]46CC[C@]23C)O1"
  LABEL CLASS: "NO"
- COMPOUND: "Cc1cc(-c2nnc3n2CCCCC3)c(C)n1-c1ccccc1"
  LABEL CLASS: "NO"
- COMPOUND: "C[C@@H]1[C@H](C)CC[C@]2(C(=O)O)CC[C@]3(C)C(=CC[C@@H]4[C@@]5(C)C[C@@H](O)[C@H](O)[C@@](C)(CO)[C@H]5CC[C@]43C)[C@@H]12"
  LABEL CLASS: "NO"
- COMPOUND: "C=CC(=O)Nc1ccc2ncnc(Nc3ccc(OCc4cccc(F)c4)c(Cl)c3)c2c1"
  LABEL CLASS: "YES"
- COMPOUND: "N[C@H]1CN(c2c(F)cc3c(=O)c(C(=O)O)cn(C4C[C@@H]4F)c3c2Cl)CC12CC2 (stereo not given in full)"
  LABEL CLASS: "NO"
- COMPOUND: "CC(Cc1ccc(O)c(O)c1)(NN)C(=O)O (stereo not given)"
  LABEL CLASS: "NO"
- COMPOUND: "CN1CCCN(C(=O)c2cccc(-c3ccc(C=C4C(=O)Nc5ccc(Cl)cc54)o3)c2)CC1"
  LABEL CLASS: "YES"
- COMPOUND: "C=C1C(=O)O[C@H]2[C@@H]1CCC(C)=CCC[C@@]1(C)O[C@@H]21"
  LABEL CLASS: "YES"
- COMPOUND: "O=C1NCCc2[nH]c(-c3ccncc3)cc21"
  LABEL CLASS: "YES"
- COMPOUND: "COc1cc(C=CC(=O)CC(=O)C=Cc2ccc(O)c(OC)c2)ccc1O"
  LABEL CLASS: "YES"
- COMPOUND: "CC1=C(C(=O)Nc2cc3cn[nH]c3cc2F)C(c2ccc(Cl)cc2F)N=C(c2ccnc(Cl)c2)N1 (stereo not given)"
  LABEL CLASS: "YES"
- COMPOUND: "O=C(O)C(=O)Nc1cccc(C2=NN=N[N]2)c1"
  LABEL CLASS: "NO"
- COMPOUND: "N#Cc1c(C2CCNCC2)cc(-c2c(O)cccc2OCC2CC2)nc1N"
  LABEL CLASS: "YES"
- COMPOUND: "Cn1c(Nc2ccc(C(F)(F)F)cc2)nc2cc(Oc3ccnc(-c4ncc(C(F)(F)F)[nH]4)c3)ccc21"
  LABEL CLASS: "YES"
- COMPOUND: "COc1cccc2c1C(=O)c1c(O)c3c(c(O)c1C2=O)C[C@@](O)(C(=O)CO)C[C@@H]3O[C@H]1C[C@H](N)[C@@H](O)[C@H](C)O1"
  LABEL CLASS: "YES"
- COMPOUND: "Cn1cc(-c2cnn3c(N)c(Br)c([C@H]4CCCNC4)nc23)cn1"
  LABEL CLASS: "YES"
- COMPOUND: "O=C(O)C=Cc1ccc(Cn2ccnc2)cc1"
  LABEL CLASS: "NO"
- COMPOUND: "COC1=C2C[C@@H](C)C[C@H](OC)[C@@H](O)[C@@H](C)C=C(C)[C@H](OC(N)=O)[C@@H](OC)C=CC=C(C)C(=O)NC(=CC1=O)C2=O"
  LABEL CLASS: "YES"
- COMPOUND: "OCC(O)C(O)C(O)CO (stereo not given)"
  LABEL CLASS: "NO"
- COMPOUND: "CC(C)C[C@@H](C=O)NC(=O)[C@H](CC(C)C)NC(=O)[C@H](CC(C)C)NC(=O)OCc1ccccc1 (Cbz-Leu-Leu-Leu-aldehyde)"
  LABEL CLASS: "YES"
- COMPOUND: "O=C(O)c1ccc(Nc2ncc3c(n2)-c2ccc(Cl)cc2C(c2c(F)cccc2F)=NC3)cc1"
  LABEL CLASS: "YES"
- COMPOUND: "c1cncc(CN2CCC(n3ncc4c(N5CCOCC5)nc(-c5ccc6[nH]ccc6c5)nc43)CC2)c1"
  LABEL CLASS: "YES"
- COMPOUND: "COc1cc(OC)c(C=CS(=O)(=O)Cc2ccc(OC)c(NCC(=O)O)c2)c(OC)c1"
  LABEL CLASS: "YES"
- COMPOUND: "OCCN1C[C@H](O)[C@@H](O)[C@H](O)[C@@H]1CO"
  LABEL CLASS: "NO"
- COMPOUND: "C=CC[C@@H]1C=C(C)C[C@H](C)C[C@H](OC)[C@H]2O[C@@](O)(C(=O)C(=O)N3CCCC[C@H]3C(=O)O[C@H](C(C)=C[C@@H]3CC[C@H](O)[C@H](OC)C3)[C@@H](C)[C@@H](O)CC1=O)[C@@H](C)C[C@@H]2OC"
  LABEL CLASS: "YES"
- COMPOUND: "C=CCNc1c(O)cc2c(O)c1C[C@@H](C)C[C@H](OC)[C@@H](O)[C@@H](C)C=C(C)[C@H](OC(N)=O)[C@@H](OC)C=CC=C(C)C(=O)N2"
  LABEL CLASS: "YES"
- COMPOUND: "c1cc(N[C@@H]2CCNC2)nc(-c2cnc3ccc(-c4cn[nH]c4)cn23)c1"
  LABEL CLASS: "YES"
- COMPOUND: "FC(F)c1nc2ccccc2n1-c1nc(N2CCOCC2)nc(N2CCOCC2)n1"
  LABEL CLASS: "YES"
- COMPOUND: "O=c1c(O)c(-c2ccc(O)c(O)c2)oc2cc(O)ccc12"
  LABEL CLASS: "YES"
- COMPOUND: "COc1ccc([C@@H]2CNC(=O)C2)cc1OC1CCCC1"
  LABEL CLASS: "YES"
- COMPOUND: "Cn1cc(C2=C(c3c4n(c5ccccc35)CCC(CN)C4)C(=O)NC2=O)c2ccccc21 (stereo not given)"
  LABEL CLASS: "YES"

====

# METHOD SUMMARY: Quantitative High-Throughput drug screen in 47 multiple myeloma cell lines against the NCATS MIPE library collection: KMS34_JCRB cell viability assay (AID 1918985); also: nearly all actives have a fitted effect of over 40% in size
# MEASUREMENT SETUP: KMS34 myeloma viability, CellTiter-Glo ATP luminescence, 48 h; series mostly up to 45.8 µM
Records with an inconclusive call do not appear. Activity calls are given as the source filed them. The call rests on the fitted dose curve; in most records, active means well fitted cell-killing curve with a large enough effect; inconclusive means small, poorly fitted or top-dose-only effect, or effect the other way; inactive means no such curve, though single readings can be large or run the other way.
Classes used: active, inactive

- COMPOUND: "c1ccc(CNc2nc(NCc3ccccc3)c3ccccc3n2)cc1"
  LABEL CLASS: "active"
- COMPOUND: "C[C@@]12C(=O)OC(=O)[C@@]1(C)C1CCC2O1"
  LABEL CLASS: "active"
- COMPOUND: "COc1cc(C=CC(=O)CC(=O)C=Cc2ccc(O)c(OC)c2)ccc1O"
  LABEL CLASS: "active"
- COMPOUND: "OC[C@H]1OC(O)C[C@@H](O)[C@H]1O (stereo not given in full)"
  LABEL CLASS: "inactive"
- COMPOUND: "NC(=NCCCCCCN=C(N)N=C(N)Nc1ccc(Cl)cc1)N=C(N)Nc1ccc(Cl)cc1"
  LABEL CLASS: "active"
- COMPOUND: "CNC(=O)Nc1ccc(-c2nc(N3CC4CCC(C3)O4)c3cnn(C4CCC5(CC4)OCCO5)c3n2)cc1"
  LABEL CLASS: "active"
- COMPOUND: "Cc1cnc(Nc2ccc(N3CCN(C)CC3)cc2)nc1Nc1cccc(S(=O)(=O)NC(C)(C)C)c1"
  LABEL CLASS: "active"
- COMPOUND: "C=CC(=O)Nc1cccc(Nc2nc(NC3CCC(N(C)C)CC3)nc3c2ncn3C(C)C)c1 (stereo not given)"
  LABEL CLASS: "active"
- COMPOUND: "Nc1ncn([C@@H]2O[C@H](CO)[C@@H](O)[C@@H]2O)c(=O)n1"
  LABEL CLASS: "active"
- COMPOUND: "OCc1ccccc1O[C@@H]1O[C@H](CO)[C@H](O)[C@H](O)[C@H]1O"
  LABEL CLASS: "inactive"
